Test system: SNU398
Test: MTT assay, SNU398
Assay type: cell-based
Conditions: Homo sapiens, SNU-398, HCC cell line
value kind: pIC50
Remember, pIC50 is on a log scale: it is -log10 of the molar concentration.

For the compound O=C(Nc1cccc2cccnc12)c1cnccn1 , what pIC50 is on record?
5.72

====

Tested on: MiaPaCa-2
Assay: MTT assay, MiaPaCa-2
Conditions: read-out: IC50 Mia PaCa-2; MTT assay; PDAC cell line
value kind: IC50

For the compound O=C(Nc1cccc2cccnc12)c1cnccn1 [QN523] , what IC50 is on record?
~100 nM

====

Tested on: Hep3B
Assay: MTT assay, Hep3B
Format: cell-based
Settings: Homo sapiens, HCC cell line
value kind: IC50 (nM)
API: value field is a number in nM; no unit string.

For the molecule O=C(Nc1cccc2cccnc12)c1cnccn1 , what IC50 is on record?
210

====

Tested on: Panc-1
Assay: MTT assay, Panc-1
Format: cell-based
Conditions: Homo sapiens, PANC-1, read-out: IC50 Panc-1
value kind: pIC50
Remember, pIC50 is on a log scale: it is -log10 of the molar concentration.

For the compound O=C(Nc1cccc2cccnc12)c1cnccn1 , what pIC50 is on record?
6.30
